System: HeLa
Experiment: Cytotoxicity against human HeLa cells incubated for 24 hrs followed by compound washout measured after 48 hrs by MTT assay
Assay type: functional, cell-based
reported_metric: IC50 (µM)

compound | reported_metric | output_unit | observed_measurement
COc1ccc2c([nH]c3c4c(c(C)cc32)OC(C)(C/C=C(\C)CCC=C(C)C)C=C4)c1-c1c(O)ccc2[nH]c3c4c(c(C)cc3c12)OC(C)(C/C=C(\C)CCC=C(C)C)C=C4 (stereo unspecified) | IC50 | µM | 17.2

* * *

Assay: Inhibition of alpha glucosidase (unknown origin) assessed as p-nitrophenyl alpha-D-glucopyranoside conversion to p-nitrophenol after 30 mins by spectrophotometric analysis
Parameters: species or system Homo sapiens
pIC50: −log10 of the molar value.

compound | pIC50
COc1ccc2c([nH]c3c4c(c(C)cc32)OC(C)(C/C=C(\C)CCC=C(C)C)C=C4)c1-c1c(O)ccc2[nH]c3c4c(c(C)cc3c12)OC(C)(C/C=C(\C)CCC=C(C)C)C=C4 (centres undefined) | 4.34
COc1cc2c(cc1-c1c(OC)ccc3c1[nH]c1c4c(c(C)cc13)OC(C)(C/C=C(\C)CCC=C(C)C)C=C4)c1cc(C)c3c(c1n2C)C=CC(C)(C/C=C(\C)CCC=C(C)C)O3 (centres undefined) | 4.16
C[C@H]1O[C@H](O[C@H]2[C@H](O)[C@@H](O)[C@@H](O[C@H]3[C@H](O)[C@@H](O)C(O)O[C@@H]3CO)O[C@@H]2CO)[C@H](O)[C@@H](O)[C@@H]1N[C@H]1C=C(CO)[C@@H](O)[C@H](O)[C@H]1O (some centres undefined) | 4.82
COc1ccc2c([nH]c3c4c(c(C)cc32)OC(C)(C/C=C(\C)CCC=C(C)C)C=C4)c1-c1ccc2[nH]c3c4c(c(C)cc3c2c1O)OC(C)(C/C=C(\C)CCC=C(C)C)C=C4 (centres undefined) | 4.39
